Exercise: for every item that follows, state its recorded Ki.
target: Carbonic anhydrase 9 (Homo sapiens); experiment: Inhibition of recombinant human carbonic anhydrase 9 incubated for 15 mins prior to testing by stopped flow CO2 hydration assay
Supply the numeric figure in nM, leaving out any unit text.

Problem: Query for Carbonic anhydrase 9 (Homo sapiens): what Ki does the record show for Cc1ccc([Te]Cc2cnc(-c3ccc(S(N)(=O)=O)cc3)[se]2)cc1 ?
Result: 2.6

Problem: Query for Carbonic anhydrase 9 (Homo sapiens): what Ki does the record show for NS(=O)(=O)c1ccc(-c2ncc(C(=O)O)[se]2)cc1 ?
Result: 9

Problem: Query for Carbonic anhydrase 9 (Homo sapiens): what Ki does the record show for NS(=O)(=O)c1ccc(-c2ncc(C[Te]c3ccccc3)[se]2)cc1 ?
Result: 7.2

Problem: Query for Carbonic anhydrase 9 (Homo sapiens): what Ki does the record show for NS(=O)(=O)c1ccc(-c2ncc(C[Se]c3ccccc3)[se]2)cc1 ?
Result: 9.1

Problem: Query for Carbonic anhydrase 9 (Homo sapiens): what Ki does the record show for N=C(N)SCc1cnc(-c2ccc(S(N)(=O)=O)cc2)[se]1 ?
Result: 7

Problem: Query for Carbonic anhydrase 9 (Homo sapiens): what Ki does the record show for NS(=O)(=O)c1ccc(-c2ncc(-c3ccc([N+](=O)[O-])cc3)[se]2)cc1 ?
Result: 8.2

Problem: Query for Carbonic anhydrase 9 (Homo sapiens): what Ki does the record show for NS(=O)(=O)c1ccc(-c2ncc(-c3ccc(F)cc3)[se]2)cc1 ?
Result: 7.5

Problem: Query for Carbonic anhydrase 9 (Homo sapiens): what Ki does the record show for Cc1cnc(-c2ccc(S(N)(=O)=O)cc2)[se]1 ?
Result: 6.9

Problem: Query for Carbonic anhydrase 9 (Homo sapiens): what Ki does the record show for NS(=O)(=O)c1ccc(-c2ncc(-c3ccc(Cl)cc3)[se]2)cc1 ?
Result: 8.4

Problem: Query for Carbonic anhydrase 9 (Homo sapiens): what Ki does the record show for COc1ccc([Te]Cc2cnc(-c3ccc(S(N)(=O)=O)cc3)[se]2)cc1 ?
Result: 0.89

Problem: Query for Carbonic anhydrase 9 (Homo sapiens): what Ki does the record show for COc1ccc([Se]Cc2cnc(-c3ccc(S(N)(=O)=O)cc3)[se]2)cc1 ?
Result: 0.55

Problem: Query for Carbonic anhydrase 9 (Homo sapiens): what Ki does the record show for Cc1ccc([Se]Cc2cnc(-c3ccc(S(N)(=O)=O)cc3)[se]2)cc1 ?
Result: 7.1

Problem: Query for Carbonic anhydrase 9 (Homo sapiens): what Ki does the record show for NS(=O)(=O)c1ccc(-c2ncc(-c3ccc(Br)cc3)[se]2)cc1 ?
Result: 0.87

Problem: Query for Carbonic anhydrase 9 (Homo sapiens): what Ki does the record show for NC(=[Se])c1ccc(S(N)(=O)=O)cc1 ?
Result: 7.6

Problem: Query for Carbonic anhydrase 9 (Homo sapiens): what Ki does the record show for NS(=O)(=O)c1ccc(-c2ncc(CSc3ccccc3)[se]2)cc1 ?
Result: 5.4

Problem: Query for Carbonic anhydrase 9 (Homo sapiens): what Ki does the record show for NS(=O)(=O)c1ccc(-c2ncc(-c3ccccc3)[se]2)cc1 ?
Result: 6.5

Problem: Query for Carbonic anhydrase 9 (Homo sapiens): what Ki does the record show for NS(=O)(=O)c1ccc(-c2ncc(CCl)[se]2)cc1 ?
Result: 2.8

Problem: Query for Carbonic anhydrase 9 (Homo sapiens): what Ki does the record show for COc1cccc(-c2cnc(-c3ccc(S(N)(=O)=O)cc3)[se]2)c1 ?
Result: 56.3

Where do these numbers come from? They come from ChEMBL document CHEMBL4270640.
